test: qHTS of pediatric cancer cell lines to identify multiple opportunities for drug repurposing: Confirmatory screen for OHS-50 cells (AID 1347128); settings: OHS-50 osteosarcoma cells viability; series mostly up to 45.9 µM;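 further: compound exposure lasted 48 h at 37 degrees C; nearly all actives have a fitted effect of over 55% in size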
Records with an inconclusive call do not appear. Activity calls are given as the source filed them. The call rests on the fitted dose curve; in most records, active means well fitted cell-killing curve with a large enough effect; inconclusive means small, poorly fitted or top-dose-only effect, or effect the other way; inactive means no such curve, though single readings can be large or run the other way.
Reply using exactly one outcome from active, inactive

For FC(F)(F)c1ccc(C=Cc2nc(COc3ccc(CCCCn4ccnn4)cc3)co2)cc1 , what call appears in the results of this test? inactive

For C[C@@]1(C(=O)Nc2ccc(F)nc2)CCCN1c1nc(Nc2cc(C3CC3)[nH]n2)c2cccn2n1 , what call appears in the results of this test? active

For NC(N)=Nc1nc(CSCCC(N)=NS(N)(=O)=O)cs1 , what call appears in the results of this test? inactive

For Cc1cnc(-c2cc(N3CCN(C(=O)CCS(C)(=O)=O)CC3)ncc2Cl)c(C)c1 , what call appears in the results of this test? inactive

For CCC(=O)OCC(=O)[C@@]1(OC(=O)CC)[C@@H](C)C[C@@H]2[C@H]3CCC4=CC(=O)C=C[C@]4(C)[C@@]3(F)[C@@H](O)C[C@@]21C , what call appears in the results of this test? inactive

For COc1cc([C@@H]2c3cc4c(cc3[C@@H](O[C@@H]3O[C@@H]5CO[C@@H](C)O[C@@H]5[C@H](O)[C@@H]3O)[C@H]3COC(=O)[C@H]23)OCO4)cc(OC)c1O , what call appears in the results of this test? active

For COC(=O)[C@H](c1ccccc1Cl)N1CCc2sccc2C1 , what call appears in the results of this test? inactive

---
For CC(C)n1c(C=C[C@H](O)C[C@H](O)CC(=O)O)c(-c2ccc(F)cc2)c2ccccc21 , what call appears in the results of this test? active
